These entries and their values trace back to ChEMBL document CHEMBL1158171.

test: Octanol-water partition coefficient, log P of the compound; format: physicochemical
RECORDED METRIC: logP
Keep it simple and answer with nothing but the number.

// known answers, use as guide
CHEMICAL SMILES: CCN1C(=O)c2c(nc(OC)n2Cc2ccc(OC)c(Cl)c2)N2C1=N[C@@H]1CCC[C@@H]12
logP: 4.32

CHEMICAL SMILES: CCN1C(=O)c2c(nc(OC)n2Cc2ccc(O)c(Br)c2)N2C1=N[C@@H]1CCC[C@@H]12
logP: 4.33

CHEMICAL SMILES: CCN1C(=O)c2c(nc(C(N)=O)n2Cc2ccc(O)cc2)N2C1=N[C@@H]1CCC[C@@H]12
logP: 2.2

CHEMICAL SMILES: CCN1C(=O)c2c(nc(Cc3ccccc3)n2Cc2ccc(C)cc2)N2C1=N[C@@H]1CCC[C@@H]12
logP: 5.95

CHEMICAL SMILES: CCOc1nc2c(n1Cc1ccc(OC)c(Br)c1)C(=O)N(CC)C1=N[C@@H]3CCC[C@@H]3N12
logP: 4.93

CHEMICAL SMILES: CCN1C(=O)c2c(nc(C#Cc3ccccc3)n2Cc2ccc(O)cc2)N2C1=N[C@@H]1CCC[C@@H]12
logP: 5.24

CHEMICAL SMILES: CCOc1nc2c(n1Cc1ccc(O)c(Cl)c1)C(=O)N(CC)C1=N[C@@H]3CCC[C@@H]3N12
logP: 4.4

Now turn to the next compound.
Value of logP reported for the compound CCN1C(=O)c2c(nc(C#Cc3ccccc3)n2Cc2ccc(Cl)cc2)N2C1=N[C@@H]1CCC[C@@H]12 is 6.19

* * *

target: cGMP-specific 3',5'-cyclic phosphodiesterase (Homo sapiens, UniProt O76074)
RECORDED METRIC: IC50 (nM)
Record the value in nM, omitting the unit from your answer.

COMPOUND: CCN1C(=O)C2C(N=CN2Cc2ccc(O)c(Br)c2)N2C1=N[C@@H]1CCC[C@@H]12 (some centres not stated)
TARGET: cGMP-specific 3',5'-cyclic phosphodiesterase (Homo sapiens, UniProt O76074)
IC50 (nM): 6.31

Now turn to the next compound.
# value of IC50, cGMP-specific 3',5'-cyclic phosphodiesterase (Homo sapiens, UniProt O76074), item CCN1C(=O)C2C(N=C(OC)N2Cc2ccc(OC)c(Cl)c2)N2C[C@@H](Cc3ccccc3)N=C12 (some centres not stated) = 1.58

* * *

test: Octanol-water partition coefficient, log P of the compound; type: physicochemical
// classify: if (logP < 4) label 1 else label 0

Examples from the recorded data:
CHEMICAL SMILES: CCN1C(=O)c2c(nc(Cc3ccccc3)n2Cc2ccc3c(c2)OCO3)N2C1=N[C@@H]1CCC[C@@H]12
CLASSIFICATION: label 0

CHEMICAL SMILES: CCN1C(=O)c2c(nc(C(=O)OC)n2Cc2ccc(OC)cc2)N2C1=N[C@@H]1CCC[C@@H]12
CLASSIFICATION: label 1

CHEMICAL SMILES: CCN1C(=O)c2c(nc(C(N)=O)n2Cc2ccc(O)c(Cl)c2)N2C1=N[C@@H]1CCC[C@@H]12
CLASSIFICATION: label 1

Determine if CCN1C(=O)c2c(nc(C(=O)NC)n2Cc2ccc(OC)c(Cl)c2)N2C1=N[C@@H]1CCC[C@@H]12 shows logP strictly lower than 4.
label 1

Determine if CCN1C(=O)c2c(nc(C(N)=O)n2Cc2ccc(OC)cc2)N2C1=N[C@@H]1CCC[C@@H]12 shows logP strictly lower than 4.
label 1

Determine if CCN1C(=O)c2c(nc(C(F)(F)F)n2Cc2ccc(O)cc2)N2C1=N[C@@H]1CCC[C@@H]12 shows logP strictly lower than 4.
label 0

Determine if CCN1C(=O)c2c(nc(C(=O)NC)n2Cc2ccc(O)c(Cl)c2)N2C1=N[C@@H]1CCC[C@@H]12 shows logP strictly lower than 4.
label 1

Determine if CCSc1nc2c(n1Cc1ccc(O)cc1)C(=O)N(CC)C1=N[C@@H]3CCC[C@@H]3N12 shows logP strictly lower than 4.
label 0

* * *

assay: Octanol-water partition coefficient, log P of the compound; type: physicochemical
RECORDED METRIC: logP
Keep it simple and answer with nothing but the number.

// known answers, use as guide
CHEMICAL SMILES: CCN1C(=O)c2c(nc(Cc3ccccc3)n2Cc2ccc(Cl)cc2)N2C1=N[C@@H]1CCC[C@@H]12
logP: 6.03
//
CHEMICAL SMILES: CCSc1nc2c(n1Cc1ccc(OC)cc1)C(=O)N(CC)C1=N[C@@H]3CCC[C@@H]3N12
logP: 4.67
//
CHEMICAL SMILES: CCN1C(=O)c2c(nc(OCc3ccccc3)n2Cc2ccc(O)c(Cl)c2)N2C[C@@H](Cc3ccccc3)N=C12
logP: 7.09
//
CHEMICAL SMILES: CCN1C(=O)c2c(nc(OC)n2Cc2ccc(OC)c(Br)c2)N2C1=N[C@@H]1CCC[C@@H]12
logP: 4.59
//
CHEMICAL SMILES: CCN1C(=O)c2c(nc(C(N)=O)n2Cc2ccc(O)c(Br)c2)N2C1=N[C@@H]1CCC[C@@H]12
logP: 3.03
//
CHEMICAL SMILES: CCOc1nc2c(n1Cc1ccc(OC)c(Cl)c1)C(=O)N(CC)C1=N[C@@H]3CCC[C@@H]3N12
logP: 4.66

Value of logP reported for the compound CCN1C(=O)c2c(ncn2Cc2ccc(OC)c(Br)c2)N2C1=N[C@@H]1CCC[C@@H]12 is 3.74

Value of logP reported for the compound CCN1C(=O)c2c(nc(C#Cc3ccccc3)n2Cc2ccc(OC)cc2)N2C1=N[C@@H]1CCC[C@@H]12 is 5.5

Value of logP reported for the compound CCN1C(=O)c2c(nc(OC)n2Cc2ccc(OC)c(C#N)c2)N2C[C@@H](Cc3ccccc3)N=C12 is 5.1

* * *

Reported logP values for the following compounds.
experiment: Octanol-water partition coefficient, log P of the compound; assay type: physicochemical
Keep it simple and answer with nothing but the number.

// known answers, use as guide
CHEMICAL SMILES: CCN1C(=O)c2c(ncn2Cc2ccc(OC)c(Cl)c2)N2C1=N[C@@H]1CCC[C@@H]12
logP: 3.47
--
CHEMICAL SMILES: CCN1C(=O)c2c(nc(OC)n2Cc2ccc(O)c(Cl)c2)N2C[C@@H](Cc3ccccc3)N=C12
logP: 5.36
--
CHEMICAL SMILES: CCN1C(=O)c2c(nc(C#N)n2Cc2ccc(OC)cc2)N2C1=N[C@@H]1CCC[C@@H]12
logP: 3.59

Now turn to the next compound.
Value of logP reported for the compound CCN1C(=O)c2c(nc(Cc3ccccc3)n2Cc2ccc(OC)c(Cl)c2)N2C1=N[C@@H]1CCC[C@@H]12 is 5.9

* * *

experiment: Octanol-water partition coefficient, log P of the compound; assay type: physicochemical
Reported logP values for the following molecules.
Keep it simple and answer with nothing but the number.

// known answers, use as guide
CHEMICAL SMILES: CCOc1nc2c(n1Cc1ccc(OC)cc1)C(=O)N(CC)C1=N[C@@H]3CCC[C@@H]3N12
OBS VALUE: 4.1
//
CHEMICAL SMILES: CCN1C(=O)c2c(nc(OC)n2Cc2ccc(O)c(Cl)c2)N2C1=N[C@@H]1CCC[C@@H]12
OBS VALUE: 4.06
//
CHEMICAL SMILES: CCN1C(=O)c2c(nc(OC)n2Cc2ccc(OC)c(Br)c2)N2C[C@@H](Cc3ccccc3)N=C12
OBS VALUE: 5.89
//
CHEMICAL SMILES: CCN1C(=O)c2c(nc(Cc3ccccc3)n2Cc2ccccc2)N2C1=N[C@@H]1CCC[C@@H]12
OBS VALUE: 5.47
//
CHEMICAL SMILES: CCN1C(=O)c2c(nc(C(N)=O)n2Cc2ccc(OC)c(Cl)c2)N2C[C@@H](Cc3ccccc3)N=C12
OBS VALUE: 4.32

Value of logP reported for the molecule CCN1C(=O)c2c(nc(C(N)=O)n2Cc2ccc(OC)c(Br)c2)N2C1=N[C@@H]1CCC[C@@H]12 is 3.3

Value of logP reported for the molecule CCN1C(=O)c2c(nc(C(N)=O)n2Cc2ccc(O)c(Cl)c2)N2C[C@@H](Cc3ccccc3)N=C12 is 4.06

Value of logP reported for the molecule CCN1C(=O)c2c(nc(OC)n2Cc2ccc(O)c(Br)c2)N2C[C@@H](Cc3ccccc3)N=C12 is 5.63
